Reported values of viability for individual entries
test: reversal of MRP1-mediated doxorubicin resistance, pilot screen, H69AR cells, doxorubicin co-treatment (AID 601); settings: H69AR cells, CellTiter-Glo, 72 h; compound alone cytotoxicity; at 10 µM
The reply should contain only the number, in %.

Input: What value of measured viability is listed for CN=C(Nc1ccc2c(c1)OCO2)SC1CC(=O)N(c2ccccc2)C1=O (stereo not given) ?
Output: 82.3

Input: What value of measured viability is listed for Cc1ccc(C)c(-n2c(Cc3cc(=O)[nH]c(=O)[nH]3)nnc2SCC(=O)NCc2ccco2)c1 ?
Output: 102

Input: What value of measured viability is listed for COc1ccc(S(=O)(=O)N2CCN(S(=O)(=O)c3ccc4c(c3)OCCO4)CC2)cc1C ?
Output: 88.2

Input: What value of measured viability is listed for c1ccc(CN2CCN(c3ncnc4c3[nH]c3ccccc34)CC2)cc1 ?
Output: 60.6

Input: What value of measured viability is listed for CC(C)CN(C(=O)c1ccc(=O)n(C)n1)c1nc2ccccc2s1 ?
Output: 90.2

Input: What value of measured viability is listed for COc1ccccc1N1CCN(C(=O)c2ccc3nc(-c4ccco4)c(-c4ccco4)nc3c2)CC1 ?
Output: 69.6

Input: What value of measured viability is listed for O=C(COC(=O)C12CC3CC(CC(C3)C1)C2)NCc1ccco1 ?
Output: 64.6

Input: What value of measured viability is listed for COC(=O)c1cc(=O)n2c(-c3ccc(OC)cc3)csc2n1 ?
Output: 92.6

Next:
Input: What value of measured viability is listed for O=S(=O)(c1ccc(Br)s1)N1CCN(c2ccccc2)CC1 ?
Output: 87.6

Input: What value of measured viability is listed for COc1cccc(C(=O)Nc2cccc(C(=O)N3CCOCC3)c2)c1 ?
Output: 90.1

Input: What value of measured viability is listed for COc1ccc(/C=N/n2c(SC)nnc2-c2ccccc2)cc1C ?
Output: 20.7

Input: What value of measured viability is listed for Cc1c(NC(=O)CCc2ccc(S(=O)(=O)N3CCOCC3)cc2)c(=O)n(-c2ccccc2)n1C ?
Output: 100

Input: What value of measured viability is listed for COc1ccc(C2C3=C(OC(C)=O)c4ccccc4C3=Nc3c2c(=O)n(C)c(=O)n3C)cc1 (stereo not given) ?
Output: 74.1

Input: What value of measured viability is listed for CCCCSc1nnc([C@H](C)NC(=O)OC(C)(C)C)o1 ?
Output: 90.3

###

assay: SK-BR-3 cell growth inhibitors, pilot screen, 24 h, human (AID 572); settings: SK-BR-3 viability, CellTiter-Glo luminescence, at 10 µM, stronger effect = lower value;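 also: compound exposure lasted between 18 and 24 h rather than exactly 24 h; 100% = carrier-treated control wells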
Reported values of viability for individual entries
The reply should contain only the number, in %.

Please review the following examples before continuing.
Input: What value of measured viability is listed for CCCCc1c(O)nc(SCC(=O)Nc2ccc3c(c2)CCC3)[nH]c1=O ?
Output: 96

Input: What value of measured viability is listed for NC(=O)CSCc1ccc(Br)cc1 ?
Output: 100

Input: What value of measured viability is listed for CCOc1cc(C(=O)Nc2c3c(nn2C(C)(C)C)CS(=O)C3)cc(OCC)c1OCC (centres undefined) ?
Output: 103

Next:
Input: What value of measured viability is listed for CCOc1ccc2nc(SCC(=O)Nc3ncccn3)[nH]c2c1 ?
Output: 92

Input: What value of measured viability is listed for Cc1[nH]nc(N=CC2=C(O)CC(C)(C)CC2=O)c1-c1ccc(Cl)cc1 ?
Output: 94.5

Input: What value of measured viability is listed for COc1ccc(C(=O)Nn2c(SCC(=O)NCC3CCCO3)nc3ccccc3c2=O)cc1 (centres undefined) ?
Output: 92.5

Input: What value of measured viability is listed for O=S1(=O)C=C(Oc2ccc(F)cc2)c2ccccc21 ?
Output: 100

Input: What value of measured viability is listed for O=C(CSc1nnc(Cc2ccccc2)n1-c1cccc(Cl)c1)N1CCOCC1 ?
Output: 106

Input: What value of measured viability is listed for CO[C@H]1C[C@@H]2CC[C@@H](C)[C@@](O)(O2)C(=O)C(=O)N2CCCC[C@H]2C(=O)O[C@H]([C@H](C)C[C@@H]2CC[C@@H](O)[C@H](OC)C2)CC(=O)[C@H](C)C=C(C)[C@@H](O)[C@@H](OC)C(=O)[C@H](C)C[C@H](C)C=CC=CC=C1C ?
Output: 113

Input: What value of measured viability is listed for CC(C)OC(=O)CSc1nnc(-c2cccnc2)n1Cc1ccccc1 ?
Output: 86

Input: What value of measured viability is listed for COc1ccc(N2C(=O)C3C4C=CC(C4)C3C2=O)nn1 (centres undefined) ?
Output: 104

Input: What value of measured viability is listed for CC1CCN(c2oc(-c3cccc4ccccc34)nc2C#N)CC1 ?
Output: 104

Input: What value of measured viability is listed for CCCCc1nc2n[nH]c(N)c2c2c1CCCC2 ?
Output: 138

Input: What value of measured viability is listed for COc1ccccc1CNC(=O)C(C)NS(=O)(=O)c1ccccc1 (centres undefined) ?
Output: 113

Input: What value of measured viability is listed for CC(C)NC(=O)c1ccccc1NC(=O)CCS(=O)(=O)Cc1ccccc1 ?
Output: 116

Input: What value of measured viability is listed for CCCC(OC(=O)CN1C(=O)COc2ccccc21)C(=O)NC1CCCC1 (centres undefined) ?
Output: 63

Input: What value of measured viability is listed for CN1C(=O)c2c(sc3c2CCCC3)NC1c1ccccc1O (centres undefined) ?
Output: 72

Input: What value of measured viability is listed for CCOC(=O)c1cnc(C(C)(C)C)[nH]c1=O ?
Output: 106

Input: What value of measured viability is listed for COCCNC(=S)c1ccc(OC)cc1 ?
Output: 118

Input: What value of measured viability is listed for CCOC(=O)c1c(C)[nH]c(C(=O)COC(=O)c2ccc(F)c(S(=O)(=O)N3CCOCC3)c2)c1C ?
Output: 88.5

Input: What value of measured viability is listed for O=C(Nc1nnc(SCC(=O)N2CCCCC2)s1)C1CCCCC1 ?
Output: 81

Input: What value of measured viability is listed for Cc1cccc(CC2CC(=O)N(c3ccccc3)C2=O)c1 (centres undefined) ?
Output: 117

Input: What value of measured viability is listed for O=C(CN1C(=O)CCS(=O)(=O)c2ccccc21)Nc1cccc(F)c1 ?
Output: 115

Input: What value of measured viability is listed for CNC(=O)Oc1ccc2c(c1)[C@]1(C)CCN(C)[C@@H]1N2C ?
Output: 112

Input: What value of measured viability is listed for CC(=O)[C@H]1CC[C@H]2[C@@H]3CCC4=CC(=O)CC[C@]4(C)[C@H]3CC[C@]12C ?
Output: 93

Input: What value of measured viability is listed for C=CCSc1nnc(-c2ccc(Cl)cc2Cl)o1 ?
Output: 96

Input: What value of measured viability is listed for CCOc1ccc(C(CC(=O)O)NC(=O)c2ccco2)cc1OC (centres undefined) ?
Output: 102

###

test: reversal of MRP1-mediated doxorubicin resistance, pilot screen, H69AR cells, doxorubicin co-treatment (AID 601); details: H69AR cells, CellTiter-Glo, 72 h; compound alone cytotoxicity; at 10 µM
Quantity Measured: viability (%)
The reply should contain only the number, in %.

Please review the following examples before continuing.
Input: What value of measured viability is listed for COc1cccc(OC)c1OCCCSc1nc(C)cc(=O)[nH]1 ?
Output: 91.1

Input: What value of measured viability is listed for CCn1nnnc1SCC(=O)N1c2ccccc2CCc2ccccc21 ?
Output: 86.7

Input: What value of measured viability is listed for Cc1ccc(NC(=O)CN(C)S(=O)(=O)c2cccc3nsnc23)cc1Cl ?
Output: 84.5

Input: What value of measured viability is listed for Oc1ccc(N2CCN(C(c3ccncc3)c3nnnn3C3CCCC3)CC2)cc1 (centres undefined) ?
Output: 91.9

Input: What value of measured viability is listed for Cn1c(=O)[nH]c(=O)c2c1ncn2CCN1CCOCC1 ?
Output: 99.1

Input: What value of measured viability is listed for Cc1ccc(S(=O)(=O)N(C)c2ccc(OCC(=O)OCc3c(C)noc3C)cc2)cc1 ?
Output: 105

Could you now consider this next compound?
Input: What value of measured viability is listed for N#Cc1c(-c2ccccc2)nc(N2CCCCCC2)[nH]c1=O ?
Output: 88.2

###

assay: SK-BR-3 cell growth inhibitors, pilot screen, 24 h, human (AID 572); conditions: SK-BR-3 viability, CellTiter-Glo luminescence, at 10 µM, stronger effect = lower value;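 also: compound exposure lasted between 18 and 24 h rather than exactly 24 h; 100% = carrier-treated control wells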
Quantity Measured: viability (%)
The reply should contain only the number, in %.

Please review the following examples before continuing.
Input: What value of measured viability is listed for CCOC(=O)Cn1nnc(-c2ccc(SC)cc2)n1 ?
Output: 96

Input: What value of measured viability is listed for CCCCOc1ccc(C2C3CN(C(=O)OCC)CC=C3C(C#N)=C(N)C2(C#N)C#N)cc1OC (centres undefined) ?
Output: 62

Input: What value of measured viability is listed for COc1ccccc1NC(=O)c1oc2ccccc2c1NC(=O)c1cc(OC)c(OC)c(OC)c1 ?
Output: 56.5

Could you now consider this next molecule?
Input: What value of measured viability is listed for CCOC(=O)N1CCC(NC(=O)c2ccc3c(c2)sc2nc(-c4cccc(OC)c4)cn23)CC1 ?
Output: 80

Data provenance is PubChem BioAssay.
